- ASSAY_SYSTEM: Normal Human MDR1 P-glycoprotein (Homo sapiens)
- Construct: made in house; host or cells: Pichia pastoris (P-gp); E. coli BL21 (DE3) (MSP1E3D1)
- TEST_DETAILS: ATPase activity assay (basal and verapamil-stimulated), P-gp in nanodiscs; on basal ATPase: test concentration or dose not given here
- Format: biochemical
- TEST_CONDITIONS: no added transport substrate
MEASURED_METRIC: Effect on basal ATPase

# count of solved cases: 6
{"MOL_SMILES": "Cc1cc(C)c(-c2cc(NC(=O)CSCC(=O)NC34CC5CC(CC(C5)C3)C4)n(-c3ccccc3)n2)cc1C", "Effect on basal ATPase": "inhibitor"}
{"MOL_SMILES": "Cc1cc(C)c(-c2cc(NC(=O)CSCC(=O)Nc3ccc4ncsc4c3)n(-c3ccccc3)n2)cc1C", "Effect on basal ATPase": "none"}
{"MOL_SMILES": "COc1cc(NC(=O)CSCC(=O)Nc2cc(-c3cc(C)c(C)cc3C)nn2-c2ccccc2)cc(OC)c1OC", "Effect on basal ATPase": "none"}
{"MOL_SMILES": "Cc1cc(C)c(-c2cc(NC(=O)CSCC(=O)NCc3ccc(F)cc3)n(-c3ccccc3)n2)cc1C", "Effect on basal ATPase": "none"}
{"MOL_SMILES": "Cc1cc(C)c(-c2cc(NC(=O)CSCC(=O)N3c4ccccc4CCc4ccccc43)n(-c3ccccc3)n2)cc1C", "Effect on basal ATPase": "none"}
{"MOL_SMILES": "Cc1cc(C)c(-c2cc(NC(=O)CSCC(=O)Nc3ccc4ccccc4c3)n(-c3ccccc3)n2)cc1C", "Effect on basal ATPase": "inhibitor"}

Okay, next one:
Task: Retrieve Effect on basal ATPase measured for Cc1cc(C)c(-c2cc(NC(=O)CSc3cccc(NC(=O)c4cncc(Br)c4)c3)n(-c3ccccc3)n2)cc1C and print it.
Output: inhibitor

----------
- ASSAY_SYSTEM: Normal Human MDR1 P-glycoprotein (Homo sapiens)
- Construct: made in house; host or cells: Pichia pastoris (P-gp); E. coli BL21 (DE3) (MSP1E3D1)
- TEST_DETAILS: ATPase activity assay (basal and verapamil-stimulated), P-gp in nanodiscs; on basal ATPase: test concentration or dose not given here
- Type: biochemical
- TEST_CONDITIONS: no added transport substrate

{"COMPOUND": "Cc1cc(C)c(-c2cc(NC(=O)CSc3nnc4c(n3)[nH]c3ccccc34)n(-c3ccccc3)n2)cc1C", "Effect on basal ATPase": "none"}
{"COMPOUND": "Cc1cc(C)c(-c2cc(NC(=O)CSc3nnc(C4CC4)[nH]3)n(-c3ccccc3)n2)cc1C [compound 29, reference compound]", "Effect on basal ATPase": "none"}

----------
- ASSAY_SYSTEM: Normal Human MDR1 P-glycoprotein (Homo sapiens, UniProt P08183)
- Construct: made in house; host or cells: Pichia pastoris (P-gp); E. coli BL21 (DE3) (MSP1E3D1)
- Sequence (P08183 whole entry): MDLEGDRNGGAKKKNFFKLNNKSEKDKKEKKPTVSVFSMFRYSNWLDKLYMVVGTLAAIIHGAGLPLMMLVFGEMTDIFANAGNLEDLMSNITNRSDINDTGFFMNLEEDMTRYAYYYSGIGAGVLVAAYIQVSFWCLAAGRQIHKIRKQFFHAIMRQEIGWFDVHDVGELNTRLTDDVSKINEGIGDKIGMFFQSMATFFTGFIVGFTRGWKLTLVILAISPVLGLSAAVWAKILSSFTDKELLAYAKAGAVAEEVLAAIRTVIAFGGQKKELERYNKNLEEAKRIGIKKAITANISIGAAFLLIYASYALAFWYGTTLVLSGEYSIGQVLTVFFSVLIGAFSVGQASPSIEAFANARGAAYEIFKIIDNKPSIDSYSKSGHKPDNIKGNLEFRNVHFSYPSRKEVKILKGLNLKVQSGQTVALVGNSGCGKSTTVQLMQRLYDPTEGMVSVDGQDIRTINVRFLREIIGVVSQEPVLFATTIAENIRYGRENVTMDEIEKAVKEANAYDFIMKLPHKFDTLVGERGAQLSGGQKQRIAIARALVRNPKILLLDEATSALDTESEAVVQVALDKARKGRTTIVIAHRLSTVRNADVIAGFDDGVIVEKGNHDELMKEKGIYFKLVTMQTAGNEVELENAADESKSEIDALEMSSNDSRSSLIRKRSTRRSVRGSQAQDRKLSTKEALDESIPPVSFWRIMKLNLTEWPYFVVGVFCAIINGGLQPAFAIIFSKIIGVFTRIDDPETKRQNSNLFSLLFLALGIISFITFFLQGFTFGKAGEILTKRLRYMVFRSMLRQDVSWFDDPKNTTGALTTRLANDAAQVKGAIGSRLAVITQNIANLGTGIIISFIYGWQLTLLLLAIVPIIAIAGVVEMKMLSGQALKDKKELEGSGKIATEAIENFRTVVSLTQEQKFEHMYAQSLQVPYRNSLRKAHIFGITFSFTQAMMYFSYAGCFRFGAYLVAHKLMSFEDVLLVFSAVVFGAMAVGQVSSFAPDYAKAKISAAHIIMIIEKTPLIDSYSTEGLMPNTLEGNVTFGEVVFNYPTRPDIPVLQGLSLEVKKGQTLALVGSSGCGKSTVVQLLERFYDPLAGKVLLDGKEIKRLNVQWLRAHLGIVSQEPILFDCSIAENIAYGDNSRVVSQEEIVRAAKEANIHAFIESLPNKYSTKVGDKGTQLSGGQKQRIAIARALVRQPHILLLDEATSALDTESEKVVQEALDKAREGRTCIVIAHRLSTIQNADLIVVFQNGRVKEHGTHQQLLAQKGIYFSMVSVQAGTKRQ
- TEST_DETAILS: ATPase activity assay (basal and verapamil-stimulated), P-gp in nanodiscs; on Basal ATPase: test concentration or dose not given here
- Type: biochemical
- TEST_CONDITIONS: no added transport substrate, ± standard deviation
MEASURED_METRIC: Basal ATPase

Guide cases for Basal ATPase, answers given:
{"MOLECULE": "Cc1cc(C)c(-c2cc(NC(=O)CSCC(=O)Nc3ccc4ccccc4c3)n(-c3ccccc3)n2)cc1C [29-231]", "ASSAY_SYSTEM": "Normal Human MDR1 P-glycoprotein (Homo sapiens, UniProt P08183)", "Basal ATPase": "70 ± 4 % of DMSO"}
{"MOLECULE": "Cc1cc(C)c(-c2cc(NC(=O)CSCC(=O)NC34CC5CC(CC(C5)C3)C4)n(-c3ccccc3)n2)cc1C [29-278]", "ASSAY_SYSTEM": "Normal Human MDR1 P-glycoprotein (Homo sapiens, UniProt P08183)", "Basal ATPase": "74 ± 6 % of DMSO"}
{"MOLECULE": "COc1cc(NC(=O)CSCC(=O)Nc2cc(-c3cc(C)c(C)cc3C)nn2-c2ccccc2)cc(OC)c1OC [29-238]", "ASSAY_SYSTEM": "Normal Human MDR1 P-glycoprotein (Homo sapiens, UniProt P08183)", "Basal ATPase": "89 ± 7 % of DMSO"}

Task: State Basal ATPase on Normal Human MDR1 P-glycoprotein (Homo sapiens, UniProt P08183). Entry: Cc1cc(C)c(-c2cc(NC(=O)CSc3cccc(NC(=O)c4cncc(Br)c4)c3)n(-c3ccccc3)n2)cc1C [29-551]
Output: 72 ± 9 % of DMSO

Task: Quote Normal Human MDR1 P-glycoprotein (Homo sapiens, UniProt P08183) Basal ATPase for entry Cc1cc(C)c(-c2cc(NC(=O)CSc3nnc(C4CC4)[nH]3)n(-c3ccccc3)n2)cc1C [compound 29, reference compound] .
Output: 88 ± 9 % of DMSO

Task: Provide Basal ATPase, system Normal Human MDR1 P-glycoprotein (Homo sapiens, UniProt P08183), entry Cc1cc(C)c(-c2cc(NC(=O)CSCC(=O)NCc3ccc(F)cc3)n(-c3ccccc3)n2)cc1C [29-286]
Output: 95 ± 3 % of DMSO

Task: Enter Basal ATPase (test system Normal Human MDR1 P-glycoprotein (Homo sapiens, UniProt P08183)) for Cc1cc(C)c(-c2cc(NC(=O)CSCC(=O)Nc3ccc4ncsc4c3)n(-c3ccccc3)n2)cc1C [29-255]
Output: 84 ± 9 % of DMSO

These measurements were taken from patent US20210134398A1.
